Values from patent US20240376108A1

- Test Description: Hygroscopicity experiment (DVS)
- Type: physicochemical
- Condition Description: Cycle 2, target relative humidity 90.0%, 25° C.
Quantity Measured: % percentage of mass change, Sorption (%)
Output spec: scalar in %, unitless text.

Some solved entries appear below for comparison.
| Compound | Value Unit | % percentage of mass change, Sorption |
| --- | --- | --- |
| Cl.N#Cc1cc2n(CC(=O)Nc3ccc(F)cn3)c(=O)c3ccc(C(F)(F)F)nc3n2n1 [Hydrochloride (crystal form A)] | % | 7.925 |
| CS(=O)(=O)O.N#Cc1cc2n(CC(=O)Nc3ccc(F)cn3)c(=O)c3ccc(C(F)(F)F)nc3n2n1 [Methanesulfonate (crystal form A)] | % | 0.675 |
| CCS(=O)(=O)O.N#Cc1cc2n(CC(=O)Nc3ccc(F)cn3)c(=O)c3ccc(C(F)(F)F)nc3n2n1 [Ethanesulfonate (crystal form A)] | % | 0.942 |

Now, please, on to the next compound.
Bench note: what % percentage of mass change, Sorption did N#Cc1cc2n(CC(=O)Nc3ccc(F)cn3)c(=O)c3ccc(C(F)(F)F)nc3n2n1.O=S(=O)(O)O [Sulfate (crystal form B)] show?
1.007

----------
- Test Description: Pharmacokinetic assay of the salt forms in rats (10 mg/kg)
- Type: in vivo
- Condition Description: male, rat, po; SD rats, p.o. 10 mg/kg, plasma, vehicle 0.5% HPMC; read-out: Average residence time MRT0-∞
Reported MRT inf values for a set of compounds
Output spec: scalar in h, unitless text.

Bench note: what MRT inf did CCS(=O)(=O)O.N#Cc1cc2n(CC(=O)Nc3ccc(F)cn3)c(=O)c3ccc(C(F)(F)F)nc3n2n1 [Ethanesulfonate (crystal form A)] show?
4.9

Bench note: what MRT inf did CS(=O)(=O)O.N#Cc1cc2n(CC(=O)Nc3ccc(F)cn3)c(=O)c3ccc(C(F)(F)F)nc3n2n1 [Methanesulfonate (crystal form A)] show?
4.8

Bench note: what MRT inf did Br.N#Cc1cc2n(CC(=O)Nc3ccc(F)cn3)c(=O)c3ccc(C(F)(F)F)nc3n2n1 [Hydrobromide (crystal form B)] show?
4.4

Bench note: what MRT inf did N#Cc1cc2n(CC(=O)Nc3ccc(F)cn3)c(=O)c3ccc(C(F)(F)F)nc3n2n1.O=S(=O)(O)O [Sulfate (crystal form B)] show?
4.6

----------
- Test Description: Solubility experiment in different media
- Format: physicochemical
- Condition Description: thermodynamic from solid, FeSSIF, room temperature
Quantity Measured: solubility at 24 h (µg/mL)
Output spec: scalar in µg/mL, unitless text.

Bench note: what solubility at 24 h did CS(=O)(=O)O.N#Cc1cc2n(CC(=O)Nc3ccc(F)cn3)c(=O)c3ccc(C(F)(F)F)nc3n2n1 [Methanesulfonate (crystal form A)] show?
11.3

----------
Reported % percentage of mass change, Desorption values for a set of molecules
- Test Description: Hygroscopicity experiment (DVS)
- Assay type: physicochemical
- Condition Description: Cycle 2, target relative humidity 40.0%, 25° C.
- Source text: 7.1 Hygroscopicity experiment of crystal forms of different salts of compound 2-(2-cyano-5-oxo-8-(trifluoromethyl)pyrazolo[1,5-a]pyrido[3,2-e]pyrimidin-4(5H)-yl)-N-(5-fluoropyridin-2-yl)acetamide 7.1.1 Experimental objective: To investigate the hygroscopicity of crystal forms of different salts of compound 2-(2-cyano-5-oxo-8-(trifluoromethyl)pyrazolo[1,5-a]pyrido[3,2-e]pyrimidin-4(5H)-yl)-N-(5-fluoropyridin-2-yl)acetamide at different relative humidity, so as to provide a basis for storage. […]
Output spec: scalar in %, unitless text.

Some solved entries appear below for comparison.
| Molecule | Value Unit | % percentage of mass change, Desorption |
| --- | --- | --- |
| Br.N#Cc1cc2n(CC(=O)Nc3ccc(F)cn3)c(=O)c3ccc(C(F)(F)F)nc3n2n1 [Hydrobromide (crystal form B)] | % | 4.112 |
| CS(=O)(=O)O.N#Cc1cc2n(CC(=O)Nc3ccc(F)cn3)c(=O)c3ccc(C(F)(F)F)nc3n2n1 [Methanesulfonate (crystal form A)] | % | 0.177 |
| CCS(=O)(=O)O.N#Cc1cc2n(CC(=O)Nc3ccc(F)cn3)c(=O)c3ccc(C(F)(F)F)nc3n2n1 [Ethanesulfonate (crystal form A)] | % | 0.184 |
| N#Cc1cc2n(CC(=O)Nc3ccc(F)cn3)c(=O)c3ccc(C(F)(F)F)nc3n2n1.O=S(=O)(O)O [Sulfate (crystal form B)] | % | 0.322 |

Now, please, on to the next molecule.
Bench note: what % percentage of mass change, Desorption did Cl.N#Cc1cc2n(CC(=O)Nc3ccc(F)cn3)c(=O)c3ccc(C(F)(F)F)nc3n2n1 [Hydrochloride (crystal form A)] show?
7.462

----------
Reported % percentage of mass change, Sorption values for a set of compounds
- Test Description: Hygroscopicity experiment (DVS)
- Assay type: physicochemical
- Condition Description: Cycle 1, target relative humidity 20.0%, 25° C.
Output spec: scalar in %, unitless text.

Some solved entries appear below for comparison.
| Compound | % percentage of mass change, Sorption [%] |
| --- | --- |
| Cl.N#Cc1cc2n(CC(=O)Nc3ccc(F)cn3)c(=O)c3ccc(C(F)(F)F)nc3n2n1 [Hydrochloride (crystal form A)] | 0.275 |
| CCS(=O)(=O)O.N#Cc1cc2n(CC(=O)Nc3ccc(F)cn3)c(=O)c3ccc(C(F)(F)F)nc3n2n1 [Ethanesulfonate (crystal form A)] | 0.094 |
| CS(=O)(=O)O.N#Cc1cc2n(CC(=O)Nc3ccc(F)cn3)c(=O)c3ccc(C(F)(F)F)nc3n2n1 [Methanesulfonate (crystal form A)] | 0.096 |

Now, please, on to the next compound.
Bench note: what % percentage of mass change, Sorption did N#Cc1cc2n(CC(=O)Nc3ccc(F)cn3)c(=O)c3ccc(C(F)(F)F)nc3n2n1.O=S(=O)(O)O [Sulfate (crystal form B)] show?
0.171

----------
- Test Description: Hygroscopicity experiment (DVS)
- Type: physicochemical
- Condition Description: Cycle 2, target relative humidity 0.0%, 25° C.
Quantity Measured: % percentage of mass change, Sorption (%)
Output spec: scalar in %, unitless text.

Some solved entries appear below for comparison.
| Compound | % percentage of mass change, Sorption (%) |
| --- | --- |
| Cl.N#Cc1cc2n(CC(=O)Nc3ccc(F)cn3)c(=O)c3ccc(C(F)(F)F)nc3n2n1 [Hydrochloride (crystal form A)] | −0.041 |
| N#Cc1cc2n(CC(=O)Nc3ccc(F)cn3)c(=O)c3ccc(C(F)(F)F)nc3n2n1.O=S(=O)(O)O [Sulfate (crystal form B)] | −0.027 |
| CCS(=O)(=O)O.N#Cc1cc2n(CC(=O)Nc3ccc(F)cn3)c(=O)c3ccc(C(F)(F)F)nc3n2n1 [Ethanesulfonate (crystal form A)] | −0.012 |

Bench note: what % percentage of mass change, Sorption did Br.N#Cc1cc2n(CC(=O)Nc3ccc(F)cn3)c(=O)c3ccc(C(F)(F)F)nc3n2n1 [Hydrobromide (crystal form B)] show?
−0.007

Bench note: what % percentage of mass change, Sorption did CS(=O)(=O)O.N#Cc1cc2n(CC(=O)Nc3ccc(F)cn3)c(=O)c3ccc(C(F)(F)F)nc3n2n1 [Methanesulfonate (crystal form A)] show?
−0.029
